System: PC-3
Assay: Cytotoxicity against human PC3 cells for 72 hrs under normoxic condition by MTT assay
Format: functional, cell-based
Conditions: PC-3, 72 h
pIC50: −log10 of the molar value.

molecule	pIC50
CCCOCNc1n[n+]([O-])c2cc(OC)ccc2[n+]1[O-]	5.18
CCCCCOCNc1n[n+]([O-])c2cc(OC)ccc2[n+]1[O-]	5.44
COc1ccc(COCNc2n[n+]([O-])c3ccccc3[n+]2[O-])cc1	4.84
[O-][n+]1nc(NCOCc2ccc(C(F)(F)F)cc2)[n+]([O-])c2ccccc21	5.12
O=[N+]([O-])c1cccc(COCNc2n[n+]([O-])c3ccccc3[n+]2[O-])c1	5.51
COc1ccc2c(c1)[n+]([O-])nc(NCOCc1ccccc1)[n+]2[O-]	5.07
[O-][n+]1nc(NCOC2CCCCC2)[n+]([O-])c2ccccc21	5.49
CCCCCCCOCNc1n[n+]([O-])c2ccccc2[n+]1[O-]	5.92
CC(C)CCOCNc1n[n+]([O-])c2ccccc2[n+]1[O-]	4.96
CC(OCNc1n[n+]([O-])c2ccccc2[n+]1[O-])c1ccccc1 (centres undefined)	5.22
CCCOCNc1n[n+]([O-])c2ccccc2[n+]1[O-]	4.85
CCCCOCNc1n[n+]([O-])c2ccccc2[n+]1[O-]	4.83
[O-][n+]1nc(NCOCc2ccccc2)[n+]([O-])c2ccccc21	4.87
CCCCCOCNc1n[n+]([O-])c2ccccc2[n+]1[O-]	5.04
CCOCNc1n[n+]([O-])c2ccccc2[n+]1[O-]	4.80
[O-][n+]1nc(NCOCc2ccc(Cl)cc2)[n+]([O-])c2ccccc21	5.24
COc1ccc2c(c1)[n+]([O-])nc(NCOC(C)c1ccccc1)[n+]2[O-] (centres undefined)	5.38
Nc1n[n+]([O-])c2ccccc2[n+]1[O-] [TIRAPAZAMINE]	4.68
COCNc1n[n+]([O-])c2ccccc2[n+]1[O-]	5.12

###

Tested on: SMMC-7721
Assay: Cytotoxicity against human SMMC7721 cells for 72 hrs under hypoxic condition by MTT assay
Format: functional, cell-based
Details: SMMC-7721, 72 h
pIC50: −log10 of the molar value.
Listing of recorded pIC50 by entry.

compound	tested-on	pIC50
[O-][n+]1nc(NCOCc2ccc(Cl)cc2)[n+]([O-])c2ccccc21	SMMC-7721	6.09
CCCOCNc1n[n+]([O-])c2ccccc2[n+]1[O-]	SMMC-7721	5.26
COc1ccc(COCNc2n[n+]([O-])c3ccccc3[n+]2[O-])cc1	SMMC-7721	5.94
CC(C)CCOCNc1n[n+]([O-])c2ccccc2[n+]1[O-]	SMMC-7721	5.54
COc1ccc2c(c1)[n+]([O-])nc(NCOC(C)c1ccccc1)[n+]2[O-] (stereo not given)	SMMC-7721	6.13

###

System: A549
Assay: Cytotoxicity against human A549 cells for 72 hrs under hypoxic condition by MTT assay
Type: functional, cell-based
Conditions: A549, 72 h
Simple rule here: IC50 less than 3000 nM is 1.0, otherwise 0.0.

compound	classification
CCCOCNc1n[n+]([O-])c2ccccc2[n+]1[O-]	0.0
CCCCCCCOCNc1n[n+]([O-])c2ccccc2[n+]1[O-]	0.0
CC(OCNc1n[n+]([O-])c2ccccc2[n+]1[O-])c1ccccc1 (configuration not stated)	1.0
COc1ccc2c(c1)[n+]([O-])nc(NCOC(C)c1ccccc1)[n+]2[O-] (configuration not stated)	1.0
[O-][n+]1nc(NCOCc2ccc(C(F)(F)F)cc2)[n+]([O-])c2ccccc21	0.0
CCOCNc1n[n+]([O-])c2ccccc2[n+]1[O-]	0.0
CCCCCOCNc1n[n+]([O-])c2cc(OC)ccc2[n+]1[O-]	1.0
[O-][n+]1nc(NCOCc2ccc(Cl)cc2)[n+]([O-])c2ccccc21	1.0
CCCCOCNc1n[n+]([O-])c2ccccc2[n+]1[O-]	1.0
COc1ccc2c(c1)[n+]([O-])nc(NCOCc1ccccc1)[n+]2[O-]	0.0
CCCCCOCNc1n[n+]([O-])c2ccccc2[n+]1[O-]	1.0
Nc1n[n+]([O-])c2ccccc2[n+]1[O-]	1.0
CCCOCNc1n[n+]([O-])c2cc(OC)ccc2[n+]1[O-]	1.0
CC(C)CCOCNc1n[n+]([O-])c2ccccc2[n+]1[O-]	1.0
COc1ccc(COCNc2n[n+]([O-])c3ccccc3[n+]2[O-])cc1	0.0
O=[N+]([O-])c1cccc(COCNc2n[n+]([O-])c3ccccc3[n+]2[O-])c1	0.0
[O-][n+]1nc(NCOC2CCCCC2)[n+]([O-])c2ccccc21	1.0
